Target under test: Voltage-gated inwardly rectifying potassium channel KCNH2 (Homo sapiens, UniProt Q12809); further: in other assays of this panel Not Active means under 50% inhibition at 10 µM
Sequence (Q12809 whole entry): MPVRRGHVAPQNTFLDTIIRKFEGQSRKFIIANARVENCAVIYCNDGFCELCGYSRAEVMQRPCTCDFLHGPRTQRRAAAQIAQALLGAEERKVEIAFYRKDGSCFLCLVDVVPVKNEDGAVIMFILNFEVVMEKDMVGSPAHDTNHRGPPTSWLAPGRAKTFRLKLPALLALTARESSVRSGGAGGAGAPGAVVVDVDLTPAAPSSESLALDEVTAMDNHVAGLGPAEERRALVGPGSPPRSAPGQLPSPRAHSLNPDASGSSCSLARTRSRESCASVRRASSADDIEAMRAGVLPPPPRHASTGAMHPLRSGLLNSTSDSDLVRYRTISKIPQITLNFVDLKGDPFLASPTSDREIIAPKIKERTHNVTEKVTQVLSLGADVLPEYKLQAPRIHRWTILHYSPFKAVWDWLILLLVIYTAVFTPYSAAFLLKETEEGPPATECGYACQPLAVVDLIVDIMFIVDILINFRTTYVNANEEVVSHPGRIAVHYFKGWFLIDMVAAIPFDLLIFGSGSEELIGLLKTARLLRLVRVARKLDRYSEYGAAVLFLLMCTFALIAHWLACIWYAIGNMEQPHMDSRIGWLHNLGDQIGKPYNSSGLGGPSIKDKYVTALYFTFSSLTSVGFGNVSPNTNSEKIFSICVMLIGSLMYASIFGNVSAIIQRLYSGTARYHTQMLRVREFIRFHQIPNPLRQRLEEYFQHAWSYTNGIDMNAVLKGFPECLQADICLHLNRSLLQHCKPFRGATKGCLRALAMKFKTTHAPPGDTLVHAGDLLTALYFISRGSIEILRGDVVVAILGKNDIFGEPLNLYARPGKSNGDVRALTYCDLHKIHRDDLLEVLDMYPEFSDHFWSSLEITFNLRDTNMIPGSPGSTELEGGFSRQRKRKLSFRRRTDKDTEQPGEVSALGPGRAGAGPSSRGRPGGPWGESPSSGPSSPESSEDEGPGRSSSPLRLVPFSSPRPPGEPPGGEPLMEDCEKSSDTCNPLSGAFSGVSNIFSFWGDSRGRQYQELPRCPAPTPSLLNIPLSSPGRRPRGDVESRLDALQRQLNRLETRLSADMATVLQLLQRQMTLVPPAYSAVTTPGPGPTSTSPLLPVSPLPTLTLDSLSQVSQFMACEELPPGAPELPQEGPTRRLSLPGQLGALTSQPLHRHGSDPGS
Experimental context: hek293
Endpoint: IC50

CNC[C@H](O)c1ccc(O)c(O)c1 [EPINEPHRINE]; Not Active
CC(CN1c2ccccc2Sc2ccccc21)N(C)C (stereo not drawn); Not Active
CC(=O)O[C@]1(C(C)=O)CC[C@H]2[C@@H]3C[C@H](C)C4=CC(=O)CC[C@]4(C)[C@H]3CC[C@@]21C [MEDROXYPROGESTERONE ACETATE]; Not Active

----------
Target under test: Cytochrome P450 2A6 (Homo sapiens, UniProt P11509); further: in other assays of this panel Not Active means under 50% inhibition at 10 µM
Sequence (P11509 whole entry): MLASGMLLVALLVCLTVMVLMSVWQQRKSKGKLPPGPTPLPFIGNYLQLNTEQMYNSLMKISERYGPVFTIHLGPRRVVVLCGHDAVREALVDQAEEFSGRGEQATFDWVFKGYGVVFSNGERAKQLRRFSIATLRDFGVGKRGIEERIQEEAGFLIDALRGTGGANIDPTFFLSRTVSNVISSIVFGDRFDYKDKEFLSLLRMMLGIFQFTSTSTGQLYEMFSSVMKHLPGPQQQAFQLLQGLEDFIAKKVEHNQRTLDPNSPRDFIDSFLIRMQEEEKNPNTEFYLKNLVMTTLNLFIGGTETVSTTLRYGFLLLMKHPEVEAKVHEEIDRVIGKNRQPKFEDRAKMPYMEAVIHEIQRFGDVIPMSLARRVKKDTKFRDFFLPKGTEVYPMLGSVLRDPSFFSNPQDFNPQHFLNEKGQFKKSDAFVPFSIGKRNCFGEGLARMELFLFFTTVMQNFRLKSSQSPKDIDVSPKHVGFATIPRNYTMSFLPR
Experimental context: bti-tn-5b1-4
Endpoint: Ki

Below, 4 compounds whose answers are already recorded.
O=c1[nH]cnc2c1ncn2[C@H]1CC[C@@H](CO)O1; Not Active
CC(C)Cc1ccc([C@H](C)C(=O)O)cc1; Not Active
COc1cc(/C=C/C(=O)O)ccc1O [FERULATE]; Not Active
C#C[C@]1(O)CC[C@H]2[C@@H]3[C@H](C)CC4=C(CCC(=O)C4)[C@H]3CC[C@@]21C; Not Active

Give its Ki value. Item: OC[C@H]1OC2C3[C@@H](CO)OC(O[C@H]4[C@H](O)[C@@H](O)[C@@H](O[C@H]5[C@H](O)[C@@H](O)[C@@H](O[C@H]6[C@H](O)[C@@H](O)[C@@H](O[C@H]7[C@H](O)[C@@H](O)[C@@H](O[C@H]8[C@H](O)[C@@H](O)[C@@H](O[C@H]9[C@H](O)[C@@H](O)C(OC1[C@H](O)[C@H]2O)O[C@@H]9CO)O[C@@H]8CO)O[C@@H]7CO)O[C@@H]6CO)O[C@@H]5CO)O[C@@H]4CO)[C@H](O)[C@H]3O
Not Active

Query (compound): CC1(C)[C@H](C(=O)O)N2C(=O)C[C@H]2S1(=O)=O ; field requested: Ki
Not Active

Entry O=C1CN(/N=C/c2ccc([N+](=O)[O-])o2)C(=O)N1 has what Ki?
Not Active

Can you share its Ki? I mean this compound: CCOc1cc(N)c(Cl)cc1C(=O)NCC1CN(Cc2ccc(F)cc2)CCO1 (stereo unspecified) [MOSAPRIDE]
Not Active

For the compound O=C(O)c1ccccc1 , what Ki is on record?
Not Active

What value of measured Ki is listed for c1ccc2c(c1)Nc1ccccc1S2 ?
Not Active

Which Ki is listed for Cc1cnc(NC(=O)C2=C(O)c3ccccc3S(=O)(=O)N2C)s1 ?
Not Active

Name the reported Ki value associated with the compound O=C1c2ccccc2C(=O)C1c1ccccc1
Not Active

Item under review: CC(=O)Nc1ccc2c(c1)Cc1ccccc1-2 . Reported Ki?
Not Active

Consider the compound shown here: C[C@]12CC[C@@H](O)C[C@@H]1CC[C@@H]1[C@@H]2CC[C@]2(C)C(=O)CC[C@@H]12 What is its recorded Ki?
Not Active

State the recorded Ki for this entry: CCN(CC)C(=S)SSC(=S)N(CC)CC
Not Active

Please report the recorded Ki for C[N+](C)(C)CCOC(N)=O.[Cl-] .
Not Active

----------
Target under test: Type-2 angiotensin II receptor (Homo sapiens, UniProt P50052); further: in other assays of this panel Not Active means under 50% inhibition at 10 µM
Sequence (P50052 whole entry): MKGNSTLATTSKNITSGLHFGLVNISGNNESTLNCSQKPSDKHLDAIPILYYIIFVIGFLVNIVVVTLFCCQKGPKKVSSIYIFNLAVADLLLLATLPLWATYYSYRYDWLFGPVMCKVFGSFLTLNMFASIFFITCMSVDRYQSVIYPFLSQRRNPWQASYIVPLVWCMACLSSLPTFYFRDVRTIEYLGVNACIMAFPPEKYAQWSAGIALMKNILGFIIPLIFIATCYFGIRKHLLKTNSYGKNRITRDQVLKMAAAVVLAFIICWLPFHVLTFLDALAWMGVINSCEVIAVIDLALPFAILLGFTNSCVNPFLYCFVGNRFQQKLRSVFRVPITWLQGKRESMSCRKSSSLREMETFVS
Assay type: cell-based
Experimental context: cho-k1
Endpoint: IC50

Completed entries (count: 5):
CC(=O)O[C@]1(C(C)=O)CC[C@H]2[C@@H]3C[C@H](C)C4=CC(=O)CC[C@]4(C)[C@H]3CC[C@@]21C [MEDROXYPROGESTERONE ACETATE]; Not Active
C1CCN2C[C@@H]3C[C@@H](CN4CCCC[C@@H]34)[C@H]2C1; Not Active
CC(C)Cc1ccc([C@H](C)C(=O)O)cc1; Not Active
Cc1cc2c(s1)Nc1ccccc1N=C2N1CCN(C)CC1; Not Active
Cc1cnc(NC(=O)C2=C(O)c3ccccc3S(=O)(=O)N2C)s1; Not Active

Name the recorded IC50 for CC(N)C12CC3CC(CC(C3)C1)C2 (stereo unspecified) .
Not Active

What value of IC50 has been reported for the following molecule? CCN1CCN(c2cc3c(cc2F)c(=O)c(C(=O)O)cn3C2CC2)CC1
Not Active

# IC50 lookup, item C#C[C@]1(O)CC[C@H]2[C@@H]3CCC4=CC(=O)CC[C@@H]4[C@H]3CC[C@@]21C
Not Active

Which IC50 reading was recorded for the molecule CC12CCC(CC1)C(C)(C)O2 ?
Not Active

May I ask what IC50 has been recorded for C=CCc1ccc2c(c1)OCO2 ?
Not Active

----------
Test method notes: DRUGMATRIX: Phorbol Ester radioligand binding (ligand: [3H] PDBu)
Format: cell membranes, Mus musculus, ICR, Brain, Membrane
Experimental context: Not Active = under 50% inhibition at 10 µM
Endpoint: Ki

Worked cases, Ki given:
Oc1ccccc1 [PHENOL]; Not Active
OC[C@H]1O[C@@H]2O[C@H]3[C@H](O)[C@@H](O)[C@@H](O[C@H]4[C@H](O)[C@@H](O)[C@@H](O[C@H]5[C@H](O)[C@@H](O)[C@@H](O[C@H]6[C@H](O)[C@@H](O)[C@@H](O[C@H]7[C@H](O)[C@@H](O)[C@@H](O[C@H]8[C@H](O)[C@@H](O)[C@@H](O[C@H]1[C@H](O)[C@H]2O)O[C@@H]8CO)O[C@@H]7CO)O[C@@H]6CO)O[C@@H]5CO)O[C@@H]4CO)O[C@@H]3CO [BETADEX]; Not Active
C[C@H](C(=O)O)c1ccc2oc(-c3ccc(F)cc3)nc2c1 [FLUNOXAPROFEN]; Not Active
Cc1nnc(NS(=O)(=O)c2ccc(N)cc2)s1 [SULFAMETHIZOLE]; Not Active
Cc1ccc(S(=O)(=O)NC(=O)NN2CCCCCC2)cc1 [TOLAZAMIDE]; Not Active
O=C(NCCN1CCOCC1)c1ccc(Cl)cc1 [MOCLOBEMIDE]; Not Active

We next turn to a different compound, shown below.
# input compound: COc1cc([C@@H]2c3cc4c(cc3[C@H](O)[C@H]3COC(=O)[C@H]23)OCO4)cc(OC)c1OC [PODOFILOX] ; wanted: its Ki
Not Active

----------
Target under test: Angiotensin-converting enzyme (Oryctolagus cuniculus, UniProt P12822);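 further: enzymatic inhibition of angiotensin-converting enzyme measured with FAPGG as the substrate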; further: in other assays of this panel Not Active means under 50% inhibition at 10 µM
Sequence (P12822 whole entry): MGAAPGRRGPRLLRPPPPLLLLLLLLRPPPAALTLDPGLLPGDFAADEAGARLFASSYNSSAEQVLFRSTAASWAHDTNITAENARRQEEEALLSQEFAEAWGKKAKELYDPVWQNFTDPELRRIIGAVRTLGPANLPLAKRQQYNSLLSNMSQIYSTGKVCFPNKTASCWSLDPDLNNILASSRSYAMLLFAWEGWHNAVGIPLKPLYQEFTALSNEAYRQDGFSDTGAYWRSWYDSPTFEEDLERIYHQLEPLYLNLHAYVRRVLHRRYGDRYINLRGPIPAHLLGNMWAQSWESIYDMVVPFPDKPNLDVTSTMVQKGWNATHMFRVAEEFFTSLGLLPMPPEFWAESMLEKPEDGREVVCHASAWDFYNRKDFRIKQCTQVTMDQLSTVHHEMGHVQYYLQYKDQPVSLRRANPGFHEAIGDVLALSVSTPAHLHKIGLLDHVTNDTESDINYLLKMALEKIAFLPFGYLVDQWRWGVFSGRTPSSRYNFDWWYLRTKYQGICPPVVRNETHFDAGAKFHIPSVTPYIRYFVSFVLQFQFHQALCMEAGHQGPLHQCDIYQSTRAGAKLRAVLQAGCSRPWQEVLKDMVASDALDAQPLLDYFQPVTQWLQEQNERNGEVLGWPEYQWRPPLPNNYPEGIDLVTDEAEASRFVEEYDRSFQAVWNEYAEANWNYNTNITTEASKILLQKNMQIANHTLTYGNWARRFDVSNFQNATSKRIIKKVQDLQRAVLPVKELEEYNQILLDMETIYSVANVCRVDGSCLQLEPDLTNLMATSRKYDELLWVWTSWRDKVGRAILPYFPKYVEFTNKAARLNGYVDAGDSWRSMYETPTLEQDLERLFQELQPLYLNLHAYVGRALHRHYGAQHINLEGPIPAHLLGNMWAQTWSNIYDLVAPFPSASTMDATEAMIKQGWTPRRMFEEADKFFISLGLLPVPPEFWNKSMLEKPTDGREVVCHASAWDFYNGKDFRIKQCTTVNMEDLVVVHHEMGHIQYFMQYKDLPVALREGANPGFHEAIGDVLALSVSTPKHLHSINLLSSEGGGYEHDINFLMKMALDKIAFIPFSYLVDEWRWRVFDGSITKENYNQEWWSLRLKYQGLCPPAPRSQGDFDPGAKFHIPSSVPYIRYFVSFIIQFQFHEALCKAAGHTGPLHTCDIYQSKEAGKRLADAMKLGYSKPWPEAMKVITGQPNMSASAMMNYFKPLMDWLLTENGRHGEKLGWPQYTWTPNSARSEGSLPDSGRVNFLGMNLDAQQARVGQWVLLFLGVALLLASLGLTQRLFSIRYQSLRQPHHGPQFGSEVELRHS
Test method notes: biochemical
Type: tissue-based, Lung
Endpoint: IC50

Reference set (5 entries):
c1ccc2c(c1)Nc1ccccc1S2 [PHENOTHIAZINE]; Not Active
O=C1CN(/N=C/c2ccc([N+](=O)[O-])o2)C(=O)N1 [NITROFURANTOIN]; Not Active
CC(O)C(=O)O (centres undefined) [LACTIC ACID]; Not Active
CC(N)C12CC3CC(CC(C3)C1)C2 (centres undefined) [RIMANTADINE]; Not Active
CC(C)(C)NC[C@H](O)COc1cccc2c1CCCC2=O [LEVOBUNOLOL]; Not Active

Report IC50 for CC(C)(c1ccc(O)cc1)c1ccc(O)cc1 [BISPHENOL A] please.
Not Active

Record request: IC50 value, item CO[C@H]1O[C@@H]2O[C@@]3(C)CC[C@H]4[C@H](C)CC[C@@H]([C@H]1C)[C@@]24OO3
Not Active

Value lookup for IC50; key = O=C(Nc1ccc(Cl)c(Cl)c1)c1cc(Cl)cc(Cl)c1O [3,3',4',5-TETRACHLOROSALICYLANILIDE]
Not Active

Please look up its IC50: CN(Cc1cc(Br)cc(Br)c1N)C1CCCCC1 [BROMHEXINE]
Not Active
